- test.description: Displacement of thiazole orange from d(G4C4)2 DNA by Scatchard plot analysis
measure.name: Ka (×10⁶ /M)

compound | unit.of.measure | assay.value
NCC1O[C@H](O[C@H]2[C@@H](O)[C@H](O[C@@H]3[C@@H](O)[C@H](N)C[C@H](N)[C@H]3O[C@H]3O[C@H](CN)[C@@H](O)[C@H](O)[C@H]3N)O[C@@H]2CNC(=S)NCc2ccc3c(c2)C(=O)c2ccccc2C3=O)[C@H](N)[C@@H](O)[C@@H]1O (stereo partly specified) | ×10⁶ /M | 5.27

====

- test.description: Displacement of fluorescein-neomycin from d(G4C4)2 DNA by Scatchard plot analysis
We begin with a simple list: items and their reported Ka.

compound | Ka, ×10⁶ /M
NCC1O[C@H](O[C@H]2[C@@H](O)[C@H](O[C@@H]3[C@@H](O)[C@H](N)C[C@H](N)[C@H]3O[C@H]3O[C@H](CN)[C@@H](O)[C@H](O)[C@H]3N)O[C@@H]2CSCCNC(=S)NCc2ccc3c(c2)C(=O)c2ccccc2C3=O)[C@H](N)[C@@H](O)[C@@H]1O (stereo partly specified) | 25.3
NCC1O[C@H](O[C@H]2[C@@H](O)[C@H](O[C@@H]3[C@@H](O)[C@H](N)C[C@H](N)[C@H]3O[C@H]3O[C@H](CN)[C@@H](O)[C@H](O)[C@H]3N)O[C@@H]2CNC(=S)NCc2ccc3c(c2)C(=O)c2ccccc2C3=O)[C@H](N)[C@@H](O)[C@@H]1O (stereo partly specified) | 14.1
NCC1O[C@H](O[C@H]2[C@@H](O)[C@H](O[C@@H]3[C@@H](O)[C@H](N)C[C@H](N)[C@H]3O[C@H]3O[C@H](CN)[C@@H](O)[C@H](O)[C@H]3N)O[C@@H]2CNC(=S)NCCCOCCCCOCCCNC(=S)NCc2ccc3c(c2)C(=O)c2ccccc2C3=O)[C@H](N)[C@@H](O)[C@@H]1O (stereo partly specified) | 8.83
NCC1O[C@H](O[C@H]2[C@@H](O)[C@H](O[C@@H]3[C@@H](O)[C@H](N)C[C@H](N)[C@H]3O[C@H]3O[C@H](CN)[C@@H](O)[C@H](O)[C@H]3N)O[C@@H]2CSCCNC(=S)NCCCOCCCCOCCCNC(=S)NCc2ccc3c(c2)C(=O)c2ccccc2C3=O)[C@H](N)[C@@H](O)[C@@H]1O (stereo partly specified) | 4.02
NCC1O[C@H](O[C@H]2[C@@H](O)[C@H](O[C@@H]3[C@@H](O)[C@H](N)C[C@H](N)[C@H]3O[C@H]3O[C@H](CN)[C@@H](O)[C@H](O)[C@H]3N)O[C@@H]2CNC(=S)NCCNC(=S)NCc2ccc3c(c2)C(=O)c2ccccc2C3=O)[C@H](N)[C@@H](O)[C@@H]1O (stereo partly specified) | 4.88
NCC1O[C@H](O[C@H]2[C@@H](O)[C@H](O[C@@H]3[C@@H](O)[C@H](N)C[C@H](N)[C@H]3O[C@H]3O[C@H](CN)[C@@H](O)[C@H](O)[C@H]3N)O[C@@H]2CSCCNC(=S)NCCNC(=S)NCc2ccc3c(c2)C(=O)c2ccccc2C3=O)[C@H](N)[C@@H](O)[C@@H]1O (stereo partly specified) | 2.28
